So I've got a bunch of molecules here, and I need their MIC90 values.
test system: Pseudomonas aeruginosa; experiment: Antimicrobial activity against drug resistant Pseudomonas aeruginosa isolates by broth microdilution method; assay type: functional
Write your answer as a measured quantity: the number, then the unit.

Example molecules with recorded MIC90:
molecule=C[C@@H](O)[C@H]1C(=O)N2C(C(=O)O)=C(S[C@@H]3CN[C@H](C(=O)N(C)C)C3)[C@H](C)[C@H]12 endpointlabel=MIC90 recordedmeasurement="32 mg/L"
molecule="C[C@@H](O)[C@H]1C(=O)N2C(C(=O)O)=C(SCCNC=N)C[C@H]12 [IMIPENEM ANHYDROUS]" endpointlabel=MIC90 recordedmeasurement="32 mg/L"
molecule=C[C@H]1COc2c(N3CCN(C)CC3)c(F)cc3c(=O)c(C(=O)O)cn1c23.C[C@H]1COc2c(N3CCN(C)CC3)c(F)cc3c(=O)c(C(=O)O)cn1c23.O endpointlabel=MIC90 recordedmeasurement="64 mg/L"
molecule=NC[C@H]1O[C@H](O[C@H]2[C@H](O)[C@@H](O[C@H]3O[C@H](CO)[C@@H](O)[C@H](N)[C@H]3O)[C@H](N)C[C@@H]2N)[C@H](N)C[C@@H]1O endpointlabel=MIC90 recordedmeasurement="128 mg/L"
molecule="CO/N=C(\\C(=O)N[C@@H]1C(=O)N2C(C(=O)[O-])=C(C[N+]3(C)CCCC3)CS[C@H]12)c1csc(N)n1 [CEFEPIME]" endpointlabel=MIC90 recordedmeasurement="64 mg/L"
molecule=CC(C)(O/N=C(\C(=O)N[C@@H]1C(=O)N2C(C(=O)[O-])=C(C[n+]3ccccc3)CS[C@H]12)c1csc(N)n1)C(=O)O endpointlabel=MIC90 recordedmeasurement="128 mg/L"

Okay, now this molecule:
Name the recorded MIC90 of the molecule listed here: Cn1c(N)c(NC(=O)NCCN)c[n+]1CC1=C(C(=O)O)N2C(=O)[C@@H](NC(=O)/C(=N\OC(C)(C)C(=O)[O-])c3nsc(N)n3)[C@H]2SC1 2 mg/L

###

system: Pseudomonas aeruginosa; experiment: Antimicrobial activity against multidrug resistant Pseudomonas aeruginosa isolates by broth microdilution method; type: functional
endpointLabel: MIC50 (µg/mL)
Numbers only, in µg/mL.

compound="C[C@@H](O)[C@H]1C(=O)N2C(C(=O)O)=C(SCCNC=N)C[C@H]12 [IMIPENEM ANHYDROUS]" recordedmeasurement=16

Fill in MIC50 for each of the 2 compounds listed.
1. CO/N=C(\C(=O)N[C@@H]1C(=O)N2C(C(=O)[O-])=C(C[N+]3(C)CCCC3)CS[C@H]12)c1csc(N)n1 [CEFEPIME]
2. NC[C@H]1O[C@H](O[C@H]2[C@H](O)[C@@H](O[C@H]3O[C@H](CO)[C@@H](O)[C@H](N)[C@H]3O)[C@H](N)C[C@@H]2N)[C@H](N)C[C@@H]1O [TOBRAMYCIN]

1. 16
2. 128

###

tested on: Pseudomonas aeruginosa; assay: Antimicrobial activity against piperacillin-tazobactam resistant Pseudomonas aeruginosa isolates by broth microdilution method; assay type: functional
endpointLabel: MIC50 (µg/mL)
One number for each entry, in µg/mL.

molecule="C[C@@H](O)[C@H]1C(=O)N2C(C(=O)O)=C(S[C@@H]3CN[C@H](C(=O)N(C)C)C3)[C@H](C)[C@H]12 [MEROPENEM]" unitspec=µg/mL recordedmeasurement=2

Respectfully, I request MIC50 for each entry included below.
1. C[C@@H](O)[C@H]1C(=O)N2C(C(=O)O)=C(SCCNC=N)C[C@H]12 [IMIPENEM ANHYDROUS]
2. NC[C@H]1O[C@H](O[C@H]2[C@H](O)[C@@H](O[C@H]3O[C@H](CO)[C@@H](O)[C@H](N)[C@H]3O)[C@H](N)C[C@@H]2N)[C@H](N)C[C@@H]1O [TOBRAMYCIN]
3. CC(C)(O/N=C(\C(=O)N[C@@H]1C(=O)N2C(C(=O)[O-])=C(C[n+]3ccccc3)CS[C@H]12)c1csc(N)n1)C(=O)O [CEFTAZIDIME]
4. CO/N=C(\C(=O)N[C@@H]1C(=O)N2C(C(=O)[O-])=C(C[N+]3(C)CCCC3)CS[C@H]12)c1csc(N)n1 [CEFEPIME]
5. O=C(O)c1cn(C2CC2)c2cc(N3CCNCC3)c(F)cc2c1=O [CIPROFLOXACIN]
6. C[C@H]1COc2c(N3CCN(C)CC3)c(F)cc3c(=O)c(C(=O)O)cn1c23.C[C@H]1COc2c(N3CCN(C)CC3)c(F)cc3c(=O)c(C(=O)O)cn1c23.O [LEVOFLOXACIN]
7. Cn1c(N)c(NC(=O)NCCN)c[n+]1CC1=C(C(=O)O)N2C(=O)[C@@H](NC(=O)/C(=N\OC(C)(C)C(=O)[O-])c3nsc(N)n3)[C@H]2SC1 [CEFTOLOZANE]

64
1
32
16
1
4
2

###

Would you mind telling me the reported MIC50 of each entry?
tested on: Pseudomonas aeruginosa; assay: Antimicrobial activity against multidrug resistant Pseudomonas aeruginosa isolates by broth microdilution method; type: functional
Express your answer as a number followed by its unit.

molsmiles=C[C@H]1COc2c(N3CCN(C)CC3)c(F)cc3c(=O)c(C(=O)O)cn1c23.C[C@H]1COc2c(N3CCN(C)CC3)c(F)cc3c(=O)c(C(=O)O)cn1c23.O system="Pseudomonas aeruginosa" recordedmeasurement="32 µg/mL"
molsmiles=C[C@@H](O)[C@H]1C(=O)N2C(C(=O)O)=C(S[C@@H]3CN[C@H](C(=O)N(C)C)C3)[C@H](C)[C@H]12 system="Pseudomonas aeruginosa" recordedmeasurement="16 µg/mL"
molsmiles=O=C(O)c1cn(C2CC2)c2cc(N3CCNCC3)c(F)cc2c1=O system="Pseudomonas aeruginosa" recordedmeasurement="32 µg/mL"
molsmiles=Cn1c(N)c(NC(=O)NCCN)c[n+]1CC1=C(C(=O)O)N2C(=O)[C@@H](NC(=O)/C(=N\OC(C)(C)C(=O)[O-])c3nsc(N)n3)[C@H]2SC1 system="Pseudomonas aeruginosa" recordedmeasurement="2 µg/mL"

Please look at the following molecule next.
Report MIC50 for CC(C)(O/N=C(\C(=O)N[C@@H]1C(=O)N2C(C(=O)[O-])=C(C[n+]3ccccc3)CS[C@H]12)c1csc(N)n1)C(=O)O 64 µg/mL

###

Field: MIC50. Provide a value for each of the compounds that follow.
tested on: Pseudomonas aeruginosa; test: Antimicrobial activity against Ceftazidime resistant Pseudomonas aeruginosa isolates by broth microdilution method; assay type: functional

Below, 3 compounds whose answers are already recorded.
compound="C[C@@H](O)[C@H]1C(=O)N2C(C(=O)O)=C(SCCNC=N)C[C@H]12 [IMIPENEM ANHYDROUS]" endpointlabel=MIC50 recordedmeasurement="64 µg/mL"
compound="C[C@H]1COc2c(N3CCN(C)CC3)c(F)cc3c(=O)c(C(=O)O)cn1c23.C[C@H]1COc2c(N3CCN(C)CC3)c(F)cc3c(=O)c(C(=O)O)cn1c23.O [LEVOFLOXACIN]" endpointlabel=MIC50 recordedmeasurement="4 µg/mL"
compound="O=C(O)c1cn(C2CC2)c2cc(N3CCNCC3)c(F)cc2c1=O [CIPROFLOXACIN]" endpointlabel=MIC50 recordedmeasurement="2 µg/mL"

List MIC50 for every entry below, keeping the order given.
1. C[C@@H](O)[C@H]1C(=O)N2C(C(=O)O)=C(S[C@@H]3CN[C@H](C(=O)N(C)C)C3)[C@H](C)[C@H]12 [MEROPENEM]
2. CC(C)(O/N=C(\C(=O)N[C@@H]1C(=O)N2C(C(=O)[O-])=C(C[n+]3ccccc3)CS[C@H]12)c1csc(N)n1)C(=O)O [CEFTAZIDIME]
3. Cn1c(N)c(NC(=O)NCCN)c[n+]1CC1=C(C(=O)O)N2C(=O)[C@@H](NC(=O)/C(=N\OC(C)(C)C(=O)[O-])c3nsc(N)n3)[C@H]2SC1 [CEFTOLOZANE]
4. NC[C@H]1O[C@H](O[C@H]2[C@H](O)[C@@H](O[C@H]3O[C@H](CO)[C@@H](O)[C@H](N)[C@H]3O)[C@H](N)C[C@@H]2N)[C@H](N)C[C@@H]1O [TOBRAMYCIN]
5. CO/N=C(\C(=O)N[C@@H]1C(=O)N2C(C(=O)[O-])=C(C[N+]3(C)CCCC3)CS[C@H]12)c1csc(N)n1 [CEFEPIME]

["4 µg/mL", "16 µg/mL", "4 µg/mL", "1 µg/mL", "256 µg/mL"]

###

tested on: Pseudomonas aeruginosa; test: Antimicrobial activity against tobramycin resistant Pseudomonas aeruginosa isolates by broth microdilution method; format: functional
Assign MIC50 to each entry below.
Answers are plain numbers, in µg/mL.

molecule=Cn1c(N)c(NC(=O)NCCN)c[n+]1CC1=C(C(=O)O)N2C(=O)[C@@H](NC(=O)/C(=N\OC(C)(C)C(=O)[O-])c3nsc(N)n3)[C@H]2SC1 unitspec=µg/mL recordedmeasurement=2
molecule="C[C@@H](O)[C@H]1C(=O)N2C(C(=O)O)=C(SCCNC=N)C[C@H]12 [IMIPENEM ANHYDROUS]" unitspec=µg/mL recordedmeasurement=128

Now for a further molecule.
Please give the documented MIC50 of NC[C@H]1O[C@H](O[C@H]2[C@H](O)[C@@H](O[C@H]3O[C@H](CO)[C@@H](O)[C@H](N)[C@H]3O)[C@H](N)C[C@@H]2N)[C@H](N)C[C@@H]1O 32
